Source of measurements: ChEMBL document CHEMBL4296182

System: Pseudomonas aeruginosa
measurementContext: Concentration 20 uM; ASSAY_TEST Inhibition of Bacterial Growth; detection method Absorption (OD600); MEDIA CAMHB; plate type 384well; NBS; CORNING #3640; time 18 hr
Description: Antibacterial activity against Pseudomonas aeruginosa ATCC 27853 (CO-ADD:GN_042); MIC in CAMBH media using NBS plates, by OD(600)
The campaign covered roughly 23,000 compounds. About 30 (0.1%) showed an effect of 50% or more. The sample holds strong results, similar compounds and a random draw of the others, so the mix is not that of the screen. Results with a measured potency or affinity are listed apart.
The reader will find reported Inhibition values listed item by item below.

{"molecule": "c1ccc(Nc2cccc3c(Nc4ccccc4)cccc23)cc1", "Inhibition, %": 21.7}
{"molecule": "Oc1ccnc2c(Cl)cccc12", "Inhibition, %": -8.65}
{"molecule": "OCc1ncccc1O", "Inhibition, %": 3.5}
{"molecule": "Cc1ccc(/N=N/c2ccc(N)cc2C)c(S(N)(=O)=O)c1", "Inhibition, %": -1.43}
{"molecule": "C=CCC(CC)C(=O)NC(=O)N1CCCc2ccccc21 (stereo not drawn)", "Inhibition, %": -1.54}
{"molecule": "COc1ccc(/C(C#N)=C/c2cccnc2)cc1", "Inhibition, %": 11.13}
{"molecule": "O=C1CSCc2nc3ccccc3n21", "Inhibition, %": 23.81}
{"molecule": "CSc1nc(S)c2[nH]c(S)nc2n1", "Inhibition, %": 6.05}
